biological target: human complement C3b protein (human, UniProt P01024 23-667; P01024 749-1663); test: cell-based or functional assay
Sequence (P01024 23-667 P314L, chain 1 of 2): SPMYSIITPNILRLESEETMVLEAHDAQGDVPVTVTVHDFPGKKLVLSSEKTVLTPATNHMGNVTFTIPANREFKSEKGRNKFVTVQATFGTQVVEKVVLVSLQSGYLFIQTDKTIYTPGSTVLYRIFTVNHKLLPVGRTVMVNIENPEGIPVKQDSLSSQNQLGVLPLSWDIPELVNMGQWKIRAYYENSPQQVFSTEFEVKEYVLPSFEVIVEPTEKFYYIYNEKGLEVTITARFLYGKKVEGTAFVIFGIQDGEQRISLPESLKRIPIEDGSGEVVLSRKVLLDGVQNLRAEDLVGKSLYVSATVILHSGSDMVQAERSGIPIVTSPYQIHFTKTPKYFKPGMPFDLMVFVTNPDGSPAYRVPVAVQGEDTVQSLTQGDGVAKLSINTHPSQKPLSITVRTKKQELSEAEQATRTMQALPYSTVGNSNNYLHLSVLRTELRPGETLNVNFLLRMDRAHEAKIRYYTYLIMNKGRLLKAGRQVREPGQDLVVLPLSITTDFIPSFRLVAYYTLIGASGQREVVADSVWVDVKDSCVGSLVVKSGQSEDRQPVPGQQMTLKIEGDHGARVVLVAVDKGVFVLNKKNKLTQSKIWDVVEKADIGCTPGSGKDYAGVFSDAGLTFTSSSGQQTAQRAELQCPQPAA
Sequence (P01024 749-1663, chain 2 of 2): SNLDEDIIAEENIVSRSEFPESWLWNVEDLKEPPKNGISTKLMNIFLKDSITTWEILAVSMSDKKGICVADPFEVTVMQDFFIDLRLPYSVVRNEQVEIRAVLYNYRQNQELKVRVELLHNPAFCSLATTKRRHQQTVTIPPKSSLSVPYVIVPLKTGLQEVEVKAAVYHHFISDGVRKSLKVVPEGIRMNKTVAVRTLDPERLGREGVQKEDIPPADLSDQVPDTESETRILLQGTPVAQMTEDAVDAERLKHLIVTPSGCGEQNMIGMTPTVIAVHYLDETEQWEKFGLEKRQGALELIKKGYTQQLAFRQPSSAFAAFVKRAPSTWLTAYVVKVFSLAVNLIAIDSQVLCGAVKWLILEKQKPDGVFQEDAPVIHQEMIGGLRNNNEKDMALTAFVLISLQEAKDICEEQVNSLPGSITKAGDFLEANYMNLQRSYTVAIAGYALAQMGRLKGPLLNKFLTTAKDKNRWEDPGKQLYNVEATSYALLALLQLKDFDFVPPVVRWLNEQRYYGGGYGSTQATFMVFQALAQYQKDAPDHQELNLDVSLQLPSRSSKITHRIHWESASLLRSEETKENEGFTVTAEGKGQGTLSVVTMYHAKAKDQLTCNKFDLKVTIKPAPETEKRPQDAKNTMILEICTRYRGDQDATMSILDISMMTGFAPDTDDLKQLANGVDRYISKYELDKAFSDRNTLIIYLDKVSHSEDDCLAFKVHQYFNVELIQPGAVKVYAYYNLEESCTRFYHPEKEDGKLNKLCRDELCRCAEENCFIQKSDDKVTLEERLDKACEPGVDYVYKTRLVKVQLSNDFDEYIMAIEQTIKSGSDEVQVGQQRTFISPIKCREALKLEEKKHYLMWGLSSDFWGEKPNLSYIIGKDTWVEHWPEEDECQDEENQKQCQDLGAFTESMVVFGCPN
TEST_READOUT: MAC deposition on zymosan, IC50

>>> reading("MOR09612 IgG (antibody, V domains shown, Germlined human IgG1 with leucines 234 and 235 changed to alanines, kappa; also called antibody 9612) VH: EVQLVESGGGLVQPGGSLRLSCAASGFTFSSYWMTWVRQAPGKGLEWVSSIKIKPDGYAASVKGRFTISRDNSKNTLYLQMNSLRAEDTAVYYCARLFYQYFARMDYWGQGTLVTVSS VL: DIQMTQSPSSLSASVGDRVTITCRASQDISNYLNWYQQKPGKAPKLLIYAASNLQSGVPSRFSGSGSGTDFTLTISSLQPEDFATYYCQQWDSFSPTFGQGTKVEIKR")
"≤ 5 nM"

Now look at this one.
Need MAC deposition on zymosan, IC50, item MOR09610 IgG (antibody, V domains shown, Germlined human IgG1 with leucines 234 and 235 changed to alanines, kappa; also called antibody 9610) VH: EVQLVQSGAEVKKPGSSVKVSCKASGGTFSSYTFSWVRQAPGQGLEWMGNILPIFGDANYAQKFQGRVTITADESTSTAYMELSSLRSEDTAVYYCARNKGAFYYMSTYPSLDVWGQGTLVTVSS VL: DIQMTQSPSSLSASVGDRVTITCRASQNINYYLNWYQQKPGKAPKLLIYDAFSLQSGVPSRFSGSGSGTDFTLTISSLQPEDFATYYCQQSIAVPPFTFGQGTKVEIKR
≤ 5 nM
